- measurement notes: chemical genetic growth profiling, strain panel (AID 1159580);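 note: tested at 20 µM; growth read once vehicle control cultures reached saturation at 30 °C; 1 = growth at the plate median or of vehicle wells; lower values mean less growth of the strain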
- experimental conditions: S. cerevisiae deletion strains, growth OD, locus YJL115W, strain asf1, active compounds read low
The whole screen tested about 5,500 compounds, of which about 2,000 (36%) were called active. Roughly 18% stayed inconclusive and do not appear here. Some of the results follow.
endpoint label: normalized growth

Reference set (3 entries):
CCCOc1ccc(C(=O)OCCN(CC)CC)cc1N | 1 (inactive)
CCCCOC(=O)c1ccc(N)cc1 | 0.907 (inactive)
C=C1CCC(OC(C)=O)/C(C)=C/C[C@@H]2[C@@H]1CC2(C)C (some centres undefined) | 1.01 (inactive)

Prompt: Entry under review: C=C1CCC2C(CC2(C)C)C(=C)CC/C1=N\O (centres undefined) . Reported normalized growth?
Completion: 0.998 (inactive)
